ASSAY EXPLANATION: LAMP-1 surface exposure blockers, TALL-104 cells – cell-based, flow cytometry, MLPCN library, primary screen (AID 651702)
TEST CONDITIONS: TALL-104 LAMP-1 surface exposure, at 10 µM, cells stimulated with thapsigargin and PMA
Out of some 360,000 compounds screened, about 2,400 (0.67%) were called active.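 The calls were made as follows: active = inhibition above about 55% (limit read from the data); inconclusive = no clear call, values can overlap the other calls; inactive = the rest.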 For the sample, actives were picked, then their nearest neighbours and some compounds at random.
Could you please pick one outcome from this set? TRUE = active, FALSE = inactive

Ask: Dear all, I need the recorded test outcome for COC(=O)[C@@]12CCCN1[C@H](c1ccc(-c3ccc(F)cc3)c(OC)c1)[C@H]1C(=O)N(C)C(=O)[C@H]12 , thank you.
Reply: FALSE

Ask: Dear all, I need the recorded test outcome for O=S(=O)(Nc1ccc2ccccc2c1)N1CCCCC1 , thank you.
Reply: FALSE

Ask: Dear all, I need the recorded test outcome for COC(=O)c1ccccc1NC(=O)CSc1nc2c(c(=O)[nH]1)CCC2 , thank you.
Reply: FALSE

Ask: Dear all, I need the recorded test outcome for COc1ccc(C2C(C(C)=O)=C(O)C(=O)N2CCc2c[nH]c3ccccc23)cc1 (configuration not stated) , thank you.
Reply: FALSE

Ask: Dear all, I need the recorded test outcome for NC(=O)c1ccccc1N(Cc1ccccc1)S(=O)(=O)c1ccccc1 , thank you.
Reply: FALSE

Ask: Dear all, I need the recorded test outcome for C[N+](C)(C)CCNC(=O)c1c[nH]c2ccccc12 , thank you.
Reply: FALSE

Ask: Dear all, I need the recorded test outcome for Cc1cccc(N2CCC(NCc3c(C(=O)N4CCCCC4)nc4c(C)cccn34)CC2)c1 , thank you.
Reply: TRUE

Ask: Dear all, I need the recorded test outcome for Cc1cccc(-n2c(Cc3cc(=O)[nH]c(=O)[nH]3)nnc2SCC(=O)Nc2cccc(C(F)(F)F)c2)c1 , thank you.
Reply: FALSE

Ask: Dear all, I need the recorded test outcome for C/C(=N\NC(=O)c1ccc(C)cc1)C1C(=O)c2ccccc2C1=O , thank you.
Reply: FALSE

Ask: Dear all, I need the recorded test outcome for COc1ccc(/C=C(\C#N)c2c[nH]c3ccccc23)cc1 , thank you.
Reply: TRUE

Ask: Dear all, I need the recorded test outcome for O=S(=O)(c1ccccc1)N(Cc1cccc(F)c1)c1ccccc1 , thank you.
Reply: TRUE

Ask: Dear all, I need the recorded test outcome for O=[N+]([O-])/C=C/c1ccc2c(ccn2Cc2ccccc2)c1 , thank you.
Reply: TRUE

Ask: Dear all, I need the recorded test outcome for O=C(NC1=CC(=O)c2ccccc2C1=O)c1ccccc1 , thank you.
Reply: TRUE

Ask: Dear all, I need the recorded test outcome for CCn1c(-c2ccoc2C)n[nH]c1=S , thank you.
Reply: FALSE

Ask: Dear all, I need the recorded test outcome for CCOC(=O)C1CCN(Cc2c(C(=O)N3CCOCC3)nc3c(C)cccn23)CC1 , thank you.
Reply: FALSE

Ask: Dear all, I need the recorded test outcome for Cc1ccc(-c2cnc(NC(=O)CCC(=O)N(C)Cc3ccccc3)n2C)cc1 , thank you.
Reply: FALSE

Ask: Dear all, I need the recorded test outcome for C=CCn1c(SCc2ccc(Cl)c(Cl)c2)nnc1C(CO)NC(=O)c1ccc(OC)cc1 (configuration not stated) , thank you.
Reply: FALSE

Ask: Dear all, I need the recorded test outcome for CCOc1ccccc1Nc1nnc(SCC(=O)NCC2CCCO2)s1 (configuration not stated) , thank you.
Reply: FALSE

Ask: Dear all, I need the recorded test outcome for Cc1cccc(NC(=O)c2cccc(C(=O)Nc3cccc(C)c3C)n2)c1C , thank you.
Reply: FALSE

Ask: Dear all, I need the recorded test outcome for Cc1cccn2c(CNCC(C)Oc3cccnc3)c(C(=O)N3CCOCC3)nc12 (configuration not stated) , thank you.
Reply: FALSE

Ask: Dear all, I need the recorded test outcome for O=C(CN1C(=O)NC2(CCCCCC2)C1=O)NCc1cccs1 , thank you.
Reply: FALSE

Ask: Dear all, I need the recorded test outcome for COc1cc(NC(=O)c2ccccc2)c(OC)cc1NC(=O)Cc1ccccc1 , thank you.
Reply: FALSE
